Origin of values: patent US7723320B2

MEASUREMENT_NOTES: Single dose po/sc bioavailability and elimination half-life study
Type: in vivo
ASSAY_SETUP: rat, plasma, other: subcutaneous and oral; female Sprague Dawley rats, sc and po single dose

MOL_SMILES: C[C@]12CC[C@@H]3c4ccc(O)cc4CC[C@H]3[C@@H]1[C@@H](O)[C@@H](O)[C@@H]2O
half-life: 2 to 3 h

====

MEASUREMENT_NOTES: Single dose po/sc bioavailability and elimination half-life study
Format: in vivo
ASSAY_SETUP: rat, plasma, po; female Sprague Dawley rats, single dose 0.05, 0.5 mg/kg; read-out: oral bioavailability relative to sc administration

COMPOUND: C[C@]12CC[C@@H]3c4ccc(O)cc4CC[C@H]3[C@@H]1[C@@H](O)[C@@H](O)[C@@H]2O [E4]
bioavailability: 80 to 100%
